Field: GI50. Provide a value for each of the compounds that follow.
- Tested on: OVCAR-3
- Experiment Description: NCI tumour cell line growth inhibition, 48 h
Active and inactive are the calls of the source. Rule as the data show it: active = GI50 up to about 1.1 µM and inactive = higher.

-- ask Provide measured GI50 value, entry: CCOC(=O)Nn1c(CC#N)nnc1Cc1ccccc1
-- reply > 100 µM (inactive)

-- ask Dear colleague, please send me the reported GI50 for CCOC(=O)[C@@H]1[C@@H](c2ccccc2)N(C)O[C@@]1(c1ccccc1)C(F)(F)F when you can.
-- reply 97.1 µM (inactive)

-- ask Give the measured GI50 for CCN(CC)c1ccc2c(c1)Oc1ccc(N(CC)CC)cc1C21Oc2ccccc2-c2c1c1ccccc1n2CC (stereo not given)
-- reply 1.25 µM (inactive)

-- ask Note down GI50 recorded for O=C1/C(=C/c2ccc(Cl)cc2)Sc2scc(-c3cccc([N+](=O)[O-])c3)[n+]21
-- reply 8.09 µM (inactive)

-- ask Assign GI50 to the following record: CC(=O)C1=C(C)N(c2ccc(C)cc2)C2(O)C3=C(C(=O)c4ccccc4C3=O)C(O)=CC12Cl (stereo not given)
-- reply 4.76 µM (inactive)

---

- Tested on: TK-10
- Experiment Description: NCI tumour cell line growth inhibition, 48 h
Activity calls are given as the source filed them. No stated cut-off is given here; in the data, active = GI50 up to about 1.1 µM and inactive = higher.
Permitted responses: active, inactive

-- ask Test call, this compound: CC1(C)OCC=CCO1
-- reply inactive

-- ask Recorded test call requested for CCOC(=O)c1c(N2CCCC2)[nH]c(=O)c(C(c2c(O)c(C(=O)OCC)c(N3CCCC3)[nH]c2=O)C(C)C)c1O
-- reply inactive

-- ask Could you kindly confirm the outcome this assay logged for CN(C)CC1CN=C(N)O1 (stereo unspecified) ?
-- reply inactive

-- ask Dear all, I need the recorded test outcome for O=c1n(Cc2ccccc2)c2ccccc2n1CC1CS1 (stereo unspecified) , thank you.
-- reply inactive

-- ask Look up the recorded call for c1ccc(-c2csc3c2-n2cccc2C3N2CCCC2)cc1 (stereo unspecified) in this test.
-- reply inactive

-- ask What call does the record list for CN(N=O)C(=O)N(N)CCCCC(NC(=O)OCc1ccccc1)C(=O)OCc1ccccc1 (stereo unspecified) ?
-- reply inactive

-- ask Each compound tested received a call. Report the one for c1nncn1C12C3C4C5C3C1C5C42 (stereo unspecified) .
-- reply inactive

-- ask I would be grateful if you could indicate the recorded call for C(=C\C(SCc1ccccc1)SCc1ccccc1)/c1ccccc1 .
-- reply inactive

-- ask Assay outcome for CCOC(=O)C(NC(=O)OC(C)(C)C)C(=O)OCC : what was it?
-- reply inactive

-- ask Could you kindly confirm the outcome this assay logged for COc1ccc(NC(=O)C(=O)Cc2ccc([N+](=O)[O-])c([N+](=O)[O-])c2CC(=O)C(=O)Nc2ccc(OC)cc2OC)c(OC)c1 ?
-- reply inactive

-- ask Recorded test outcome, item CC(=O)OC1COC(N2C(=O)/C(=N\Nc3ccc([N+](=O)[O-])cc3)c3cc(Br)c([N+](=O)[O-])cc32)C(OC(C)=O)C1OC(C)=O (stereo unspecified)
-- reply inactive

-- ask Entry CN1C(=O)C2(C)SC1(c1ccccc1)C1C(=O)N(c3ccccc3)C(=O)C12 (stereo unspecified) : call = ?
-- reply inactive

-- ask Which outcome was assigned to N#Cc1nc(C#N)n(S(=O)(=O)c2ccccc2)c1NS(=O)(=O)c1ccccc1 in this test?
-- reply inactive

-- ask Recorded test call requested for Cc1ccc(-c2cc(=O)c(=O)[nH][nH]2)cc1
-- reply inactive

-- ask Could you check what this test reported for CC(=O)NC1C(OCc2ccccc2)OC(CO)C(O)C1OC(C)C(=O)NC(C(=O)N[C@@H](CCC(=O)NCCNCCNc1c2ccccc2nc2cccc([N+](=O)[O-])c12)C(N)=O)C(C)C (stereo partly specified) ?
-- reply inactive

-- ask Called result for Fc1ccccc1C1SCC2=Nc3ccccc3CN21 (stereo unspecified)
-- reply inactive

-- ask Check the results log: what was the call for CN(CCCN=C=S)CCCN1c2ccccc2CCc2ccccc21 ?
-- reply inactive

-- ask Returns: the outcome recorded for COC1OC(CO)C(O)C1N (stereo unspecified) in this assay.
-- reply inactive

-- ask Field: outcome | Entry: COc1ccc(N/N=C2\CCOc3ccc(C)cc3C2=O)cc1
-- reply inactive

-- ask What call does the record list for CC(=O)OCCn1cnc2c(NCC=C(C)C)ncnc21 ?
-- reply inactive

-- ask Write down the call the test reported for this compound. Item: COc1ccc2c(c1)c(=Cc1ccc(N(C)C)cc1)c1cc(-c3ccccc3)[n+](C)n12
-- reply active

---

- Tested on: NCI-H226
- Experiment Description: NCI tumour cell line growth inhibition, 48 h
Calls of active or inactive are those of the source. No stated cut-off is given here; in the data, active = GI50 up to about 1.1 µM and inactive = higher.
Recorded Metric: GI50

-- ask # return recorded GI50 for entry COc1cc2c3cc1Oc1c(O)c(OC)cc4c1C(Cc1ccc(O)c(c1)Oc1ccc(cc1)CC3N(C)CC2)N(C)CC4 (stereo not drawn)
-- reply 21.4 µM (inactive)

-- ask Check the records and state GI50 for COc1cccc(/C=C2\CCC(CCN(C)C)(C3=CCCC3)C2=O)c1 (stereo not drawn)
-- reply 17.1 µM (inactive)

-- ask Give GI50 for the following compound: CN(C)CC1CN=C(N)O1 (stereo not drawn)
-- reply > 100 µM (inactive)

---

- Test system: HCT-116
- Experiment Description: NCI tumour cell line growth inhibition, 48 h
Activity calls are given as the source filed them. No stated cut-off is given here; in the data, active = GI50 up to about 1.1 µM and inactive = higher.
Give GI50 for every item shown.

-- ask For the compound CCCCCCCCCCCCC(=O)NCC(=O)NC(Cc1ccccc1)C(=O)Oc1ccc([N+](=O)[O-])cc1 (configuration not stated) , give its measured GI50 value.
-- reply 30.9 µM (inactive)

-- ask Return the recorded GI50 value; entry: CC1(C)OCC=CCO1
-- reply > 100 µM (inactive)

-- ask Look up and report measured GI50 for this entry: C[P+](C)(CC(F)(F)F)c1ccccc1
-- reply > 100 µM (inactive)

-- ask Retrieve GI50 measured for O=C1N[C@H]2c3c(Cl)sc(Cl)c3/C(=N/O)[C@H]2O1 and print it.
-- reply 80.7 µM (inactive)

-- ask Give reported GI50 value for CC(C)N1CN(C(C(=O)N[C@@H]2C(=O)N3C2SC(C)(C)C3C(=O)O)c2ccccc2)CSC1=S (some centres not stated)
-- reply > 100 µM (inactive)

-- ask Answer with the recorded GI50 for the compound listed here: Cc1ccc(/C=C/C(=O)C(C)(C)CN2CCCCC2)cc1
-- reply 10.5 µM (inactive)

-- ask Recall and state the measured GI50 for O=c1[nH]c(=O)n(COCc2ccccc2)c2ccc([N+](=O)[O-])cc12 .
-- reply > 100 µM (inactive)

-- ask Give me measured GI50, please, for this compound: C/C(=N\n1c(Cc2ccccc2)n[nH]c1=O)c1ccc([N+](=O)[O-])cc1
-- reply > 100 µM (inactive)

-- ask // Input: COc1ccc2c3c([nH]c2c1)-c1nc2ccccc2c(=O)n1CC3 . Output its GI50 only.
-- reply > 25 µM (inactive)

-- ask Indicate the recorded GI50 value for this compound: CC(=O)N(C)c1ccc2ncccc2c1[N+](=O)[O-]
-- reply > 100 µM (inactive)

-- ask Dear colleague, please send me the reported GI50 for CC(C)(C)[Si](C)(C)O[C@@H](C(=O)OC1C=CCCC1)[C@@H](NC(=O)c1ccccc1)c1ccccc1 (some centres not stated) when you can.
-- reply 12.6 µM (inactive)

-- ask Please report GI50 for the following compound: CC(C)(C)c1ccc(O)c(CN(Cc2c(O)ccc3ccccc23)C2CCCCC2)c1
-- reply 16.9 µM (inactive)

-- ask Let me know recorded GI50 for CC(C)/C(Cl)=N\OC(NC(=O)P(=O)(c1ccccc1)c1ccccc1)(C(F)(F)F)C(F)(F)F , thanks.
-- reply 9.16 µM (inactive)

-- ask Name the recorded GI50 of the item Cc1cc(S(=O)(=O)/N=C(\NN)Nc2ccc(Cl)cc2)c(S)cc1Cl in your answer.
-- reply 3.03 µM (inactive)

-- ask // Input: CC1=C(C(=O)NCc2ccccc2)C(c2ccccc2O)C(C(=O)NCc2ccccc2)=C(C)N1 . Output its GI50 only.
-- reply 14.4 µM (inactive)

-- ask Please list GI50 recorded for the compound COc1cc2c(cc1OC)C1=C(C=O)c3ccc(OC)c(OC)c3C(O)N1CC2 (configuration not stated)
-- reply 30.5 µM (inactive)

-- ask Please give measured GI50 of the following entry: C[N+](C)([O-])CCC=C1c2ccccc2CCc2ccccc21
-- reply 29.6 µM (inactive)

-- ask Look up and state reported GI50 for C=C(CBr)CCCOCc1ccccc1
-- reply 41.6 µM (inactive)

-- ask Tell me GI50 reported for COc1cc(OC)c2c(=O)c3c([N+](=O)[O-])cccc3n(C)c2c1
-- reply > 100 µM (inactive)

-- ask Return GI50 (reported value) for this compound: Oc1ccc(-c2nc3cc(F)ccc3s2)cc1
-- reply 17.5 µM (inactive)

-- ask Tell me GI50 reported for COc1cc(OC)c(OC)cc1/C=C/c1cc[n+](C)c2ccccc12
-- reply 27.8 µM (inactive)

-- ask Give the value of GI50 reported for the following: COC(=O)c1ccc(/C=N/c2cc(C)nn2-c2ccccc2)cc1
-- reply 29 µM (inactive)
